EXPERIMENTAL SYSTEM: Gal(b1-4)GlcNAc(b1-3)[Fuc(a1-3)GlcNAc(b1-6)]Gal(b1-4)Glc
ASSAY INFO: glycan array binding signal (z-score within array); higher = stronger binding
TEST CONTEXT: glycan notation: IUPAC condensed, linker removed
The sample as a whole holds a higher share of the strongest signals than the screen did.
ASSAY READOUT: glycan array binding signal (z-score)
Hey, just send me the number, nothing else.

Known results for binders:
binder="Sp8391B-bot-388-20-388 (Bacteroides ovatus) (protein) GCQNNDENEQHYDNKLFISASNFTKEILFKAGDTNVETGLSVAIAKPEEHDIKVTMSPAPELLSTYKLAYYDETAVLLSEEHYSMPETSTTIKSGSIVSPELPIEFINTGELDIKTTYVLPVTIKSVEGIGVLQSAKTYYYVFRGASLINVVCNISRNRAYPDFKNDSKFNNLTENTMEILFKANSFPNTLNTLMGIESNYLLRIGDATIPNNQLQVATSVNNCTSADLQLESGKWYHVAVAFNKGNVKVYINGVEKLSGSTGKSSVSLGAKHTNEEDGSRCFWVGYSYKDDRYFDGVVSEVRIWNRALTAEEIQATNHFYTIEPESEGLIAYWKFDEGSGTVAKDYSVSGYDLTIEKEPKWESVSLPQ" reading=0.415
binder="CLEC5A (Homo sapiens), Q9NY25 (protein) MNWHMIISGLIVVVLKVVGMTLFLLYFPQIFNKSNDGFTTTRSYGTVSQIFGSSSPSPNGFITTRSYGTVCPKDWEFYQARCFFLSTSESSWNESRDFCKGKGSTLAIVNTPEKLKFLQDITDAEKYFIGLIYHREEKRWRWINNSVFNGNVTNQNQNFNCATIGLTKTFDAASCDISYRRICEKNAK" reading=-0.199
binder="Erv46-EDTA (Saccharomyces cerevisiae), P39727 (protein) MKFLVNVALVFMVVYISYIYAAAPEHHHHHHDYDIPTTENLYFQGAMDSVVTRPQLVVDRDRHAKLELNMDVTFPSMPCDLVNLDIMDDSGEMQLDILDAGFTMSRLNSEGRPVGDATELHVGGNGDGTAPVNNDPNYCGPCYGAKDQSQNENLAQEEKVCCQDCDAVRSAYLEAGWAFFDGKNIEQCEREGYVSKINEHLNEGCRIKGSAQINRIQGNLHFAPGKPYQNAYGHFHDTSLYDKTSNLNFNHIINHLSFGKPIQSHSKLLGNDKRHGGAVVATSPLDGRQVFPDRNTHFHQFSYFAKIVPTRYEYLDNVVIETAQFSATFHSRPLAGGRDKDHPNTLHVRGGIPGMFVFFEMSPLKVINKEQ" reading=-0.11

Read the next record carefully.
Query :: Given PNA (Arachis hypogaea), P02872 (protein) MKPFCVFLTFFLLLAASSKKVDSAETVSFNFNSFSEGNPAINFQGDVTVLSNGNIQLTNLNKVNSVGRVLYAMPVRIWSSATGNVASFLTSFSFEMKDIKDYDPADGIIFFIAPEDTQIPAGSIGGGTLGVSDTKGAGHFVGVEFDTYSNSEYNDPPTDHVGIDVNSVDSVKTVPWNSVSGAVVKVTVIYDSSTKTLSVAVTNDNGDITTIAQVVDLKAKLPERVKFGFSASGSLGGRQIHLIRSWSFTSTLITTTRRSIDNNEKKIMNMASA , state its recorded glycan array binding signal (z-score).
Result :: -0.247
